Give IC50 for every item shown.
Tested on: HepG2 cells
protocol: CAA (cellular antioxidant activity) assay
Assay type: cell-based
measurementParameters: Homo sapiens; HepG2, DCFH-DA/AAPH; read-out: CAA, concentration necessary to halve the fluorescence response (IC50)
One number for each entry, in µM.

I have 4 compounds here; please give me IC50 for each one.
1. COc1cc([C@H]2Oc3cc([C@H]4Oc5cc(O)cc(O)c5C(=O)[C@@H]4O)ccc3O[C@@H]2CO)ccc1O
2. COc1cc(C2Oc3cc([C@H]4Oc5cc(O)cc(O)c5C(=O)[C@@H]4O)ccc3OC2CO)ccc1O (stereo partly shown)
3. O=c1c(O)c(-c2ccc(O)c(O)c2)oc2cc(O)cc(O)c12 [Quercetin, quercetin, reference compound]
4. COc1cc([C@@H]2Oc3cc([C@H]4Oc5cc(O)cc(O)c5C(=O)[C@@H]4O)ccc3O[C@H]2CO)ccc1O

1: 9.8; 2: 10.7; 3: 5.4; 4: 8.9

* * *

protocol: Viability of A2780/DOX cells (resazurin)
measurementParameters: human
Exercise: for every item that follows, state its recorded viability at 20 µM.

What does the record list as viability at 20 µM for COc1cc([C@@H]2Oc3cc(-c4oc5cc(O)cc(O)c5c(=O)c4O)ccc3O[C@H]2CO)ccc1O [Dehydrosilybin B, 2,3-dehydrosilybin B] ?
< 80%

# context switch: different compound, same viability at 20 µM
Which viability at 20 µM is reported for this compound? COc1cc(C2Oc3cc(-c4oc5cc(O)cc(O)c5c(=O)c4O)ccc3OC2CO)ccc1O (centres unmarked) [Dehydrosilybin AB, 2,3-dehydrosilybin]
< 80%

* * *

System: ABCB2
protocol: ABCB2 mRNA expression (real-time PCR)
Assay type: cell-based, human
measurementParameters: A2780/DOX, 10 µM combined with doxorubicin at IC25, 48 h
measureName: ABCB2 Expression Difference
One number for each entry.

I'd like to know its ABCB2 Expression Difference. The molecule in question is COc1cc([C@H]2Oc3cc([C@H]4Oc5cc(O)cc(O)c5C(=O)[C@@H]4O)ccc3O[C@@H]2CO)ccc1O
17.975

COc1cc([C@@H]2Oc3cc(-c4oc5cc(O)cc(O)c5c(=O)c4O)ccc3O[C@H]2CO)ccc1O [Dehydrosilybin B, 2,3-dehydrosilybin B] ?
9.286

Next molecule: COc1cc([C@H]2Oc3cc(-c4oc5cc(O)cc(O)c5c(=O)c4O)ccc3O[C@@H]2CO)ccc1O [Dehydrosilybin A, 2,3-dehydrosilybin A]
5.557

Also COc1cc(C2Oc3cc([C@H]4Oc5cc(O)cc(O)c5C(=O)[C@@H]4O)ccc3OC2CO)ccc1O (stereo partly drawn) , if possible.
18.114

Next: COc1cc([C@@H]2Oc3cc([C@H]4Oc5cc(O)cc(O)c5C(=O)[C@@H]4O)ccc3O[C@H]2CO)ccc1O
15.698

---
I have this molecule here, COc1cc(C2Oc3cc(-c4oc5cc(O)cc(O)c5c(=O)c4O)ccc3OC2CO)ccc1O (stereo not drawn) [Dehydrosilybin AB, 2,3-dehydrosilybin] , and I need its recorded ABCB2 Expression Difference.
5.145

* * *

Tested on: ABCA3
protocol: ABCA3 mRNA expression (real-time PCR)
Format: cell-based, human
measurementParameters: A2780/DOX, 10 µM combined with doxorubicin at IC25, 48 h
measureName: ABCA3 Expression Difference
Numbers only.

Reported ABCA3 Expression Difference, compound COc1cc(C2Oc3cc([C@H]4Oc5cc(O)cc(O)c5C(=O)[C@@H]4O)ccc3OC2CO)ccc1O (some centres unmarked) : ____
1.142

Also COc1cc([C@@H]2Oc3cc(-c4oc5cc(O)cc(O)c5c(=O)c4O)ccc3O[C@H]2CO)ccc1O [Dehydrosilybin B, 2,3-dehydrosilybin B] , if possible.
1.060

Try this compound too: COc1cc([C@H]2Oc3cc(-c4oc5cc(O)cc(O)c5c(=O)c4O)ccc3O[C@@H]2CO)ccc1O [Dehydrosilybin A, 2,3-dehydrosilybin A]
1.042

And what about the compound COc1cc(C2Oc3cc(-c4oc5cc(O)cc(O)c5c(=O)c4O)ccc3OC2CO)ccc1O (centres unmarked) [Dehydrosilybin AB, 2,3-dehydrosilybin] ?
0.943

Continuing:
Bench note: what ABCA3 Expression Difference did COc1cc([C@@H]2Oc3cc([C@H]4Oc5cc(O)cc(O)c5C(=O)[C@@H]4O)ccc3O[C@H]2CO)ccc1O show?
0.794
